tested on: Staphylococcus aureus; test: Antimicrobial activity against Staphylococcus aureus Smith by micro broth dilution or agar based method; format: functional; conditions: Staphylococcus aureus, Smith; read-out: MIC
// classify: if (MIC < 4 µg/mL) met else not met

>>> category_label("Cc1cc(S(C)(=O)=O)nc2c(CCC34CCC(NCc5ccc6c(n5)NC(=O)CO6)(CC3)CO4)c(F)cnc12")
"met"
>>> category_label("COc1ccc2ncc(O)c(CCC34CCC(NCc5ccc6c(n5)NC(=O)CO6)(CC3)CO4)c2n1")
"met"
>>> category_label("COc1ccc2nc(N3CCNCC3)c(F)c(CCC34CCC(NCc5ccc6c(n5)NC(=O)CO6)(CC3)CO4)c2n1")
"not met"
>>> category_label("CN(C)c1nc2c(CCC34CCC(NCc5ccc6c(n5)NC(=O)CO6)(CC3)CO4)ccnc2cc1C(F)(F)F")
"not met"
>>> category_label("COc1nc2c(CCC34CCC(NCc5ccc6c(n5)NC(=O)CO6)(CC3)CO4)c(F)cnc2cc1C(F)(F)F")
"not met"
>>> category_label("COc1cc(C)c2nccc(CCC34CCC(NCc5ccc6c(n5)NC(=O)CO6)(CC3)CO4)c2n1")
"met"
>>> category_label("Cc1ccc2ncc(F)c(CCC34CCC(NCc5ccc6c(n5)NC(=O)CO6)(CC3)CO4)c2n1")
"met"
>>> category_label("O=C1COc2ccc(CNC34CCC(CCc5c(F)cnc6cc(C(F)(F)F)cnc56)(CC3)OC4)nc2N1")
"not met"

Strictly below 4 µg/mL: is that where MIC of COc1nc2c(CCC34CCC(NCc5ccc6c(n5)NC(=O)CO6)(CC3)CO4)c(F)cnc2cc1F sits?
met

Strictly below 4 µg/mL: is that where MIC of COc1cc2nccc(CCC34CCC(NCc5ccc6c(n5)NC(=O)CO6)(CC3)CO4)c2nc1C(=O)O sits?
not met

Strictly below 4 µg/mL: is that where MIC of Nc1ccc2ncc(F)c(CCC34CCC(NCc5ccc6c(n5)NC(=O)CO6)(CC3)CO4)c2n1 sits?
met

Strictly below 4 µg/mL: is that where MIC of COc1ccc2ncc(CO)c(CCC34CCC(NCc5ccc6c(n5)NC(=O)CO6)(CC3)CO4)c2n1 sits?
met

Strictly below 4 µg/mL: is that where MIC of O=C1COc2ccc(CNC34CCC(CCc5c(F)cnc6ccc(O)nc56)(CC3)OC4)nc2N1 sits?
met

Strictly below 4 µg/mL: is that where MIC of CCOc1cc(C)c2ncc(F)c(CCC34CCC(NCc5ccc6c(n5)NC(=O)CO6)(CC3)CO4)c2n1 sits?
met

Strictly below 4 µg/mL: is that where MIC of O=C1COc2ccc(CNC34CCC(CCc5ccnc6cc(Cl)cnc56)(CC3)OC4)nc2N1 sits?
not met
